Origin of measurements: patent US8765771B2

Test system: Hamster pancreatic β cell strain HIT-T15 cells
Experiment: Action of promoting insulin secretion (Test Example 1)
Assay type: cell-based
Details: Mesocricetus auratus, glucose 2 mM, 1 hour at 37° C., insulin in the supernatant, 0.0001 μM to 10 μM, read-out: EC50 (50% effect concentration, insulin secretion)
Bucketed by reported EC50, buckets being class 0: < 10 nM; class 1: ≥ 10 nM and < 40 nM; class 2: ≥ 40 nM

INSERT INTO results (compound, discrete_label) VALUES
  ('CS(=O)(=O)c1ccc(Nc2ncnc3c(C4CCN(S(=O)(=O)C5CC5)CC4)coc23)c(F)c1 [Example 11]', 'class 2'),
  ('CCc1cnc(N2CCC(c3coc4c(Nc5ccc(S(C)(=O)=O)cc5F)ncnc34)CC2)nc1 [Example 3]', 'class 1'),
  ('CC(C)(C)COC(=O)N1CCC(c2coc3c(Nc4ccc(S(C)(=O)=O)cc4F)ncnc23)CC1 [Example 35]', 'class 2'),
  ('CC(C)(OC(=O)N1CCC(c2coc3c(Nc4ccc(S(C)(=O)=O)cc4F)ncnc23)CC1)C(F)(F)F [Example 33]', 'class 1'),
  ('CC(C)(C)OC(=O)N1CCC(c2coc3c(Oc4ccc(S(C)(=O)=O)c(F)c4)ncnc23)CC1 [Example 21]', 'class 2'),
  ('CS(=O)(=O)c1ccc(Nc2ncnc3c(C4CCN(C(=O)Oc5ccccc5)CC4)coc23)c(F)c1 [Example 37]', 'class 2'),
  ('CC(C)OC(=O)N1CCC(c2coc3c(Nc4ccc(S(C)(=O)=O)cc4F)ncnc23)CC1 [Example 8]', 'class 2'),
  ('CC(C)(C)OC(=O)N1CCC(c2coc3c(N4CCc5cc(S(C)(=O)=O)ccc54)ncnc23)CC1 [Example 24]', 'class 0'),
  ('CC(C)(C)OC(=O)N1CCC(c2coc3c(Oc4ccc(S(C)(=O)=O)cc4)ncnc23)CC1 [Example 40]', 'class 1'),
  ('CS(=O)(=O)c1ccc(Nc2ncnc3c(C4CCN(c5ncc(Br)cn5)CC4)coc23)c(F)c1 [Example 5]', 'class 1'),
  ('CC(C)(C)OC(=O)N1CCC(c2csc3c(Nc4ccc(S(C)(=O)=O)cc4F)ncnc23)CC1 [Example 27]', 'class 2'),
  ('CC(C)(C)OC(=O)N1CCC(c2coc3c(Oc4ccc(-n5cnnn5)cc4)ncnc23)CC1 [Example 41]', 'class 2'),
  ('CS(=O)(=O)c1ccc(Nc2ncnc3c(C4CCN(c5ncc(Cl)cn5)CC4)coc23)c(F)c1 [Example 2]', 'class 0'),
  ('CS(=O)(=O)c1ccc(Nc2ncnc3c(C4CCN(C(=O)OCc5ccccc5)CC4)coc23)c(F)c1 [Example 7]', 'class 1'),
  ('CS(=O)(=O)c1ccc(Nc2ncnc3c(C4CCN(c5ccc(C(F)(F)F)cn5)CC4)coc23)c(F)c1 [Example 6]', 'class 1'),
  ('CC(C)(C)OC(=O)N1CCC(c2coc3c(Nc4ccc(S(C)(=O)=O)cc4F)ncnc23)CC1 [Example 1]', 'class 0'),
  ('CS(=O)(=O)c1ccc(Nc2ncnc3c(C4CCN(C(=O)OCC(Cl)(Cl)Cl)CC4)coc23)c(F)c1 [Example 36]', 'class 1'),
  ('CS(=O)(=O)c1ccc(Nc2ncnc3c(C4CCN(c5ncc(C(F)(F)F)cn5)CC4)coc23)c(F)c1 [Example 31]', 'class 0'),
  ('CS(=O)(=O)c1ccc(Nc2ncnc3c(C4CCN(S(=O)(=O)C5CCCCC5)CC4)coc23)c(F)c1 [Example 12]', 'class 0'),
  ('CS(=O)(=O)c1ccc(Nc2ncnc3c(C4CCN(c5ncc(F)cn5)CC4)coc23)c(F)c1 [Example 4]', 'class 1'),
  ('CCc1cnc(N2CCC(c3coc4c(N5CCc6cc(S(C)(=O)=O)ccc65)ncnc34)CC2)nc1 [Example 25]', 'class 1');
